tested-target: the molecule itself
test-summary: SDS-PAGE (Coomassie Brilliant Blue staining); purified recombinant rat Anxs on 4%-15% SDS-PAGE, denaturation buffer with beta-mercaptoethanol; dimeric forms seen as faint bands beside the monomer; nature of the dimers not known (disulfide or tight noncovalent)

>  <protein>
rat Annexin A2 (natural protein, UniProt Q07936 1-339, looked up, The forward primer puts ATGGGT before the natural start codon, so Met-Gly may precede the natural Met; also called AnxA2; source: E. coli BL21 (DE3), purified (Ni2+-NTA, size exclusion chromatography)) MSTVHEILCKLSLEGDHSTPPSAYGSVKPYTNFDAERDALNIETAIKTKGVDEVTIVNILTNRSNAQRQDIAFAYQRRTKKELPSAMKSALSGHLETVMLGLLKTPAQYDASELKASMKGLGTDEDSLIEIICSRTNQELQEINRVYKEMYKTDLEKDIISDTSGEFRKLLVALAKGKRAEDGSVIDYELIDQDARELYDAGVKRKGTDVPKWISIMTERSVCHLQKVFERYKSYSPYDMLESIRKEVKGDLENAFLNLVQCIQNKPLYFADRLYDSMKGKGTRDKVLIRIMVSRSEVDMLKIRSEFKRKYGKSLYYFIQQDTKGDYQKALLYLCGGDD

>  <binding result>
binds

$$$$
